Measured values drawn from PubChem BioAssay (NCI) for this set.

For each record, write down the corresponding TGI.
System: HCC-2998 colon
assay explanation: NCI tumour cell line growth inhibition, 48 h

Known results for compounds:
| compound | TGI |
| --- | --- |
| COC(=O)CN(CC(=O)NCCNC(=O)OC(C)(C)C)C1CCCCC1N(CC(=O)OC)CC(=O)OC (stereo unspecified) | > 100 µM |
| O=C1/C(=C/c2ccccc2Cl)COc2ccc(Br)cc21 | > 100 µM |
| C=CCCn1nc(-c2ccccc2)oc1=O | > 100 µM |
| Cn1cnc([N+](=O)[O-])c1S(=O)(=O)Oc1ccc(Cl)cc1 | 30.2 µM |

For the 2 compounds below, give their TGI values.
1. O=C(NC(CS)C(=O)O)c1c2ccccc2nc2ccccc12 (stereo unspecified)
2. Cc1cccc2c(N)c3cccc(C(=O)NCC[N+](C)(C)Cc4ccccc4[N+](=O)[O-])c3nc12

Found:
["> 100 µM", "> 25.9 µM"]

---

Tested on: IGROV1 ovarian
assay explanation: NCI tumour cell line growth inhibition, 48 h
I'd be grateful if you could share measured TGI for these entries.

Here are 3 molecules together with their reported answers.
| molecule | TGI |
| --- | --- |
| CCc1cc2c(c(OCC(F)(F)F)c(C(=O)NC3CCN(C(=O)CO)CC3)n2C)c(=O)n1CC(=O)c1ccccc1 | > 100 µM |
| CC(NNC(=O)c1ccncc1)c1ccccc1 (stereo unspecified) | > 100 µM |
| Cc1cc(-c2nc3sc(C)cn3c2/C=N/N=C(N)N)c(C)s1 | > 100 µM |

Hey, can you go through the list below and give me TGI for every item?
1. Clc1cc(Br)ccc1-c1ccc(CNCC2CCNCC2)o1
2. N#Cc1ccc(C2ON=C(c3ccccc3)N2C23CC4CC(CC(C4)C2)C3)cc1 (stereo unspecified)
3. C[n+]1c2ccccc2c(N=[N+]=[N-])c2ccccc21
4. O=C(CCN1CCCCC1)Nc1ccc2c(c1)C(=O)c1ccc(NC(=O)CCN3CCCCC3)cc1C2=O

Found:
1: 3.86 µM; 2: > 10 µM; 3: > 10 µM; 4: 13.2 µM

Dear colleague, could you please provide TGI for the molecules listed below?
1. COC(=O)C1(Cc2ccccc2)Cc2ccccc2C1O (stereo unspecified)
2. Cc1c(-c2ccccc2)c(C#N)c2nnn(-c3ccc(Cl)cc3)c(=O)n12
3. CCOC(=O)C(C)NC(=O)NC12CC3CC(CC(F)(C3)C1)C2 (stereo unspecified)
4. CC(=O)Nc1ccc(S(=O)(=O)c2nnc(NC(C)=O)s2)cc1

Found:
1. > 100 µM
2. > 100 µM
3. > 100 µM
4. > 100 µM

---

System: PC-3 prostate
assay explanation: NCI tumour cell line growth inhibition, 48 h
Could you please report measured GI50 for the items listed next?

Consider the following illustrative entries.
| compound | GI50 |
| --- | --- |
| CCN1/C(=C/C(C)=C/c2sc3ccc4ccccc4c3[n+]2CC)Sc2ccc3ccccc3c21 | 85 nM |
| CC(C)(C)c1cc(C[P+](c2ccccc2)(c2ccccc2)c2ccccc2)cc(C(C)(C)C)c1O | 278 nM |
| COc1cccc2c1C(=O)c1c(O)c3c(c(O)c1C2=O)C[C@](O)(C(=O)CO)C[C@H]3O[C@@H]1C[C@@H](NC(=O)CCCN(C)C2(c3ccc(F)cc3)CC3CCC2C3)[C@H](O)[C@@H](C)O1 (some centres not stated) | 1180 nM |
| COc1ccc(C)c2sc(N(Cc3cccnc3)C(=O)c3ccc(C#N)cc3)nc12 | 30200 nM |
| CC(C)CCN(CCC(C)C)CC(=O)Nc1ccc(S(=O)(=O)c2ccc(NC(=O)CN(CCC(C)C)CCC(C)C)cc2)cc1 | 2010 nM |

I would be grateful if you could provide GI50 for each of the following entries.
1. Cc1ccc(/C(=N/NS(=O)(=O)c2cc(C)c(Cl)cc2Cl)Sc2cc(Cl)c(C)cc2S(N)(=O)=O)cc1
2. COc1cccc(S(=O)(=O)NC2=NCCN2C(=S)SN2CCn3c2nsc3=S)c1
3. Clc1cc(Br)ccc1-c1ccc(CNCC2CCNCC2)o1
4. COc1cccc(/C=N\NC(=O)c2ccncc2)c1O
5. CCCCCSc1ccc2nc(NC(=O)OCC)sc2c1
6. Nc1nc(Sc2ccc([N+](=O)[O-])c3nonc23)c2ncn(C3OC(CO)C(O)C3O)c2n1 (configuration not stated)
7. Oc1ccc(N=Nc2ccc(Br)cc2)c(O)c1
8. Cn1cnc([N+](=O)[O-])c1S(=O)(=O)Oc1ccc(Cl)cc1

Found:
1: > 100000 nM; 2: 36200 nM; 3: 1640 nM; 4: 8010 nM; 5: 798 nM; 6: 3240 nM; 7: 3080 nM; 8: 17200 nM

---

Test system: OVCAR-4 ovarian
assay explanation: NCI tumour cell line growth inhibition, 48 h; in the data active means GI50 below about 0.43 µM; inactive means the rest
Bench note: report the call from active, inactive

| molecule | class assignment |
| --- | --- |
| COc1ccc(C2c3ccc4ccccc4c3Oc3ncn(CCCn4ccnc4)c(=N)c32)cc1OC (configuration not stated) | inactive |

Lookup: Hi team, can someone confirm the assay call for `O=C(Nc1ccc(Cl)c(C(F)(F)F)c1)Nc1ccc(-c2cccnc2)cc1N1CCC(CO)CC1` ?
Found: inactive

Lookup: Then what about the molecule `Oc1nc(N2CCOCC2)sc1/C=C1\C=Nc2ccccc21` ?
Found: inactive

Lookup: How about `O=C(Nc1ccc(I)cc1F)c1cc(Br)ccc1O` ?
Found: inactive

Lookup: Try `CCCCCCOC(=O)CC1=C(C)/C(=C/c2[nH]c(-c3ccc[nH]3)cc2OC)N=C1C` next.
Found: active

Lookup: // same read-out, input: `COc1cccc(S(=O)(=O)NC2=NCCN2C(=S)SN2CCn3c2nsc3=S)c1`
Found: inactive

Lookup: Field entry: `COc1ccc(-c2cnc(-c3ccc(OC)cc3)n2-c2cc(OC)c(OC)c(OC)c2)cc1`
Found: inactive

Lookup: Queued: `Cc1ccc(/C(=N/NS(=O)(=O)c2cc(C)c(Cl)cc2Cl)Sc2cc(Cl)c(C)cc2S(N)(=O)=O)cc1`
Found: inactive

Lookup: Please give the result for `COC(=O)c1c2c(c(C)[n+]([O-])c1C)C(=O)C(NCc1ccccc1)=CC2=O` too.
Found: inactive

---

Test system: SW-620 colon
assay explanation: NCI tumour cell line growth inhibition, 48 h; in the data active means GI50 below about 0.43 µM; inactive means the rest
Select the matching outcome among 1 (active), 0 (inactive)

Some solved entries appear below for comparison.
| compound | tgt | class assignment |
| --- | --- | --- |
| Cc1ccc(/C(=N/NS(=O)(=O)c2cc(C)c(Cl)cc2Cl)Sc2cc(Cl)c(C)cc2S(N)(=O)=O)cc1 | SW-620 colon | 0 |
| CCN1/C(=C/C(C)=C/c2sc3ccc4ccccc4c3[n+]2CC)Sc2ccc3ccccc3c21 | SW-620 colon | 1 |
| COc1cc(-n2cc(-c3ccc(Cl)cc3)n(-c3ccccc3)c2=O)cc(OC)c1OC | SW-620 colon | 0 |
| CN1CCN(C)C1c1ccc(C2N(C)CCN2C)cc1 | SW-620 colon | 0 |

Lookup: Could you kindly confirm the outcome this assay logged for `COC(=O)[C@H](Cc1cn(C)cn1)NC(=O)[C@H](CC(C)C)NC(=O)Nc1cc(C(F)(F)F)cc(C(F)(F)F)c1` ?
Found: 0

Lookup: Now give it for `COC(=O)CCc1n(Cc2ccc3ccccc3c2)c2ccccc2[n+]1Cc1ccc2ccccc2c1` too.
Found: 0

Lookup: Do the same for `CCCCCN(CCCCC)CCC[C@@H](C)[C@H]1CC[C@H]2[C@@H]3[C@H](OCCCN)C[C@@H]4C[C@H](OCCCN)CC[C@]4(C)[C@H]3C[C@H](OCCCN)[C@]12C` please
Found: 0

Lookup: And for OCC1OC(N2C=C(c3nc4ccccc4s3)C3C=CC=CC32)C(O)C(O)C1O (stereo not drawn) ?
Found: 0

---

Kindly state TGI for each of the entries shown.
System: RXF 393 renal
assay explanation: NCI tumour cell line growth inhibition, 48 h
Numbers only, in µM.

Example cases with answers are listed next.
| compound structure | unit symbol | TGI |
| --- | --- | --- |
| O=C1c2cc3c(cc2CC12Cc1ccccc1C2)CCC3 | µM | 67.2 |
| COc1ccccc1C#C/C=C\C#Cc1ccccc1C#N | µM | 83.5 |

Would you mind giving TGI for every compound in the list below?
1. C[C@]12CC[C@H]3[C@@H](CC=C4C[C@@H](O)CC[C@@]43C)[C@@H]1C/C(=C\c1ccncc1)[C@@H]2O
2. COc1ccc(C)c2sc(N(Cc3cccnc3)C(=O)c3ccc(C#N)cc3)nc12
3. CCCCCCOC(=O)CC1=C(C)/C(=C/c2[nH]c(-c3ccc[nH]3)cc2OC)N=C1C
4. CCc1cc2c(c(OCC(F)(F)F)c(C(=O)NC3CCN(C(=O)CO)CC3)n2C)c(=O)n1CC(=O)c1ccccc1
5. CCCCCN(CCCCC)CCC[C@@H](C)[C@H]1CC[C@H]2[C@@H]3[C@H](OCCCN)C[C@@H]4C[C@H](OCCCN)CC[C@]4(C)[C@H]3C[C@H](OCCCN)[C@]12C

Found:
[38, 99.8, 1.07, 42.7, 32.7]
